This collection of values is drawn from PubChem BioAssay AID1159580.

assay: chemical genetic growth profiling, strain panel (AID 1159580);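 also: tested at 20 µM; growth read once vehicle control cultures reached saturation at 30 °C; lower values mean less growth of the strain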; conditions: S. cerevisiae deletion strains, growth OD, locus YDL005C, strain med2, hits give low values
Hit rate of the full screen: of about 5,500 compounds, about 2,000 (36%) were called active. About 18% were inconclusive and are not listed. The list shows a part of the results.
Please assign not met whenever normalized growth is at or above 1, and met whenever it is below.

Hello, I'm reviewing records and need to know if normalized growth of O=C1NC(O)=NC1(c1ccccc1)c1ccccc1 is below 1. Could you check?
not met

Hello, I'm reviewing records and need to know if normalized growth of CN(C)CCCN1c2ccccc2CCc2ccc(Cl)cc21 is below 1. Could you check?
not met

Hello, I'm reviewing records and need to know if normalized growth of CN(C)CCCN1c2ccccc2Sc2ccccc21 is below 1. Could you check?
not met

Hello, I'm reviewing records and need to know if normalized growth of Cc1scc2c1N(C(=O)CN1CCN(C)CC1)c1ccccc1NC2=O is below 1. Could you check?
met

Hello, I'm reviewing records and need to know if normalized growth of COc1ccc(C2Sc3ccccc3N(CCN(C)C)C(=O)C2OC(C)=O)cc1 (stereo not given) is below 1. Could you check?
met
